Format: in vitro ADME, Human
Settings: human, pH 7.4
Protocol: Cryopreserved hepatocytes are incubated in an appropriate buffer system containing 50% species serum. […] The remaining amount of parent compound in the supernatants is then analysed by HPLC-MS/MS. Clearance is calculated from compound half-lives using the well-stirred liver model and is converted to clearance stated as % of the liver blood flow (% Qh).
*1 amine or outer side, *2 acyl side, *3 side chain or, on linkers, in order; H or OH if unused. Where a SMILES comes first, the peptide text is derived from it. [ ]: non-standard residue; d: D form. Trp(1-(1,1-Me2-allyl)) = C=CC(C)(C)n1cc(C[C@H](N)C(=O)O)c2ccccc21; Ala(3R-Me,3-isobutenyl) = CC(C)=C[C@@H](C)[C@H](N)C(=O)O; X3 = C#CCOc1ccc([C@@H](OC)[C@H](N[*:1])C(=O)[*:2])cc1; X2 = C#CCn1cc(C[C@@H](C(=O)[*:2])N(C)[*:1])c2ccccc21; NMeTrp(1-Me) = CN[C@@H](Cc1cn(C)c2ccccc12)C(=O)O; NMeLeu(5-OH,4R) = CN[C@@H](C[C@@H](C)CO)C(=O)O; Phe(βR-OMe) = CO[C@H](c1ccccc1)[C@H](N)C(=O)O; Trp(1-Me) = Cn1cc(C[C@H](N)C(=O)O)c2ccccc21; NMeL = CN[C@@H](CC(C)C)C(=O)O; Pra = C#CC[C@H](N)C(=O)O
I'd be grateful if you could share measured Hepatocyte Stability Human QH for these entries.
Field: numeric (%). Do not append units.

// Hepatocyte Stability Human QH value for CO[C@H](c1ccccc1)[C@@H]1NC(=O)[C@H](C)NC(=O)[C@H](C[C@@H](C)CO)N(C)C(=O)[C@H](Cc2cn(C)c3ccccc23)NC(=O)[C@H](CCC(=O)N(C)C)NC(=O)[C@H](CC(C)C)N(C)C(=O)[C@H](C(C)C)NC1=O [SI-74] (cyclo(A[Phe(βR-OMe)]V[NMeL]E(NMe2)[Trp(1-Me)][NMeLeu(5-OH,4R)])) : 12.386

// Hepatocyte Stability Human QH value for C=CC(C)(C)n1cc(C[C@@H]2NC(=O)[C@H]([C@H](C)C=C(C)C)NC(=O)[C@H](CC(C)C)N(C)C(=O)[C@H](C(C)C)NC(=O)[C@H]([C@H](OC)c3ccccc3)NC(=O)[C@H](C)NC(=O)[C@H](C[C@@H](C)CO)N(C)C2=O)c2ccccc21 [dCymC] (cyclo([Trp(1-(1,1-Me2-allyl))][NMeLeu(5-OH,4R)]A[Phe(βR-OMe)]V[NMeL][Ala(3R-Me,3-isobutenyl)])) : 38.000

// Hepatocyte Stability Human QH value for CO[C@H](c1ccccc1)[C@@H]1NC(=O)[C@H](C)NC(=O)[C@H](C[C@@H](C)CO)N(C)C(=O)[C@H](Cc2cn(C)c3ccccc23)N(C)C(=O)[C@H](CCC(=O)N(C)C)NC(=O)[C@H](CC(C)C)N(C)C(=O)[C@H](C(C)C)NC1=O [SI-76] (cyclo(A[Phe(βR-OMe)]V[NMeL]E(NMe2)[NMeTrp(1-Me)][NMeLeu(5-OH,4R)])) : 19.852

// Hepatocyte Stability Human QH value for C#CCn1cc(C[C@H]2C(=O)N(C)[C@@H](C[C@@H](C)CO)C(=O)N[C@@H](C)C(=O)N[C@@H]([C@H](OC)c3ccccc3)C(=O)N[C@@H](C(C)C)C(=O)N(C)[C@@H](CC(C)C)C(=O)N[C@@H](C(C)C)C(=O)N2C)c2ccccc21 [Compound 26] (cyclo(A[Phe(βR-OMe)]V[NMeL]V[X2][NMeLeu(5-OH,4R)])) : 43.919

// Hepatocyte Stability Human QH value for C#CCOc1ccc([C@@H](OC)[C@@H]2NC(=O)[C@H](C)NC(=O)[C@H](C[C@@H](C)CO)N(C)C(=O)[C@H](Cc3cn(C)c4ccccc34)NC(=O)[C@H](C(C)C)NC(=O)[C@H](CC(C)C)N(C)C(=O)[C@H](C(C)C)NC2=O)cc1 [SI-38] (cyclo(A[X3]V[NMeL]V[Trp(1-Me)][NMeLeu(5-OH,4R)])) : 19.299

// Hepatocyte Stability Human QH value for C#CC[C@@H]1NC(=O)[C@H](CC(C)C)N(C)C(=O)[C@H](C(C)C)NC(=O)[C@H]([C@H](OC)c2ccccc2)NC(=O)[C@H](C)NC(=O)[C@H](C[C@@H](C)CO)N(C)C(=O)[C@H](Cc2cn(C)c3ccccc23)N(C)C1=O [Compound 20] (cyclo(A[Phe(βR-OMe)]V[NMeL][Pra][NMeTrp(1-Me)][NMeLeu(5-OH,4R)])) : 34.158
